Run Description: yeast display, Sf9 membrane polyspecificity reagent, FACS + sequencing; frameworks hold sequencing errors

>  <Ordered Residues>
QGQRVESGGGLVQAGGSLRLSCAASGSTFEDNAMGWSRPAPGKERELVAAITTGGGSTYYADSVKGRFTISRDNAKNTVYLQMNSLKPEDTAVYYCAADWSYYYSRNYESDYWGQGTQVTVSS

>  <polyreactivity (PSR sort gate)>
low polyreactivity

$$$$
>  <Ordered Residues>
QVQLVESCGGLVQAGGRLRLSCAASGRIFYSYAMGWSRQAPGKERELVAAITVSGGSTFYADSVKGRFTISRDNAKNTVYLQMNSLKPEDTAVYYCNAPKRYSTIGYDYWGQGSQVTVSS

>  <polyreactivity (PSR sort gate)>
high polyreactivity

$$$$
>  <Ordered Residues>
QVQLVESGGGLVQAGGSLRLSCAPSGRIVYYYAMGWYRHAPGKERELVASITFSGGRTFYADSVKGRFTITRDYAKNTVYLQMNSVTPEDTAVYYGAAVRCGRRSGGLVAEYDYWGQGTQVSVSS

>  <polyreactivity (PSR sort gate)>
high polyreactivity

$$$$
>  <Ordered Residues>
QVQLVESGGGLVQAGGSLRLSCAASGSIFAHYAMGWYRQAPGKERELVAAISWGGGRTYYADSVKGRFTISRDNAKNTVYLQMNSLKPEDTAVYYCAARAANKSNYWGQGTQVTVSS

>  <polyreactivity (PSR sort gate)>
low polyreactivity

$$$$
>  <Ordered Residues>
QVQLGESGGGLLQAGGSHSLICADSGSTIRPNAMGWYTQAPGKERELVATIRGGGTSTYYADSVKGRFTISRDNAKNTVYLQLNSLKPEDTAVYYCAARGFYTGSYPGYYYWGQGTQVTVSS

>  <polyreactivity (PSR sort gate)>
high polyreactivity

$$$$

----------
Run Description: yeast display, Sf9 membrane polyspecificity reagent, FACS + sequencing; frameworks hold sequencing errors
Measurement Label: polyreactivity (PSR sort gate)

>  <Ordered Residues>
QVQLVESGGGLVQAGGSLRLSCAASGFIFRPYAMGWYRQAPGKERELVATISYRGGSTDYADSVKGRFTISRDNAKNTVYLQMNSLKPEDTAVYYCNAGYNRGYYYPVFAFFPYEYWGQGTQVTVSS

>  <Result>
low polyreactivity

$$$$
>  <Ordered Residues>
QVQLVESGVGLVQAGGSLRLICAASGRNFRTNAMGWYRQAPGKERELVAAISTGGGITKYADSVKGRFTISRDNSKNTVYLQMNSLKPEDTAVYYCAADAVNTLDYWGQGTQVTVSS

>  <Result>
low polyreactivity

$$$$
>  <Ordered Residues>
QVQLVESGGGLVQAGGSLRLSCAASGITFTPNAMGWYRQAPGKEREFVAAITYSGGSTYYADSVKGRFTISRDNAKNTVYLQMNSLKPEDTAVYYCAADSFAWWGSRYDYWGQGTQVTVSS

>  <Result>
low polyreactivity

$$$$
>  <Ordered Residues>
QVQLVESGGGLVQAGGSLRLSCAASGFTLDYYAMGLYRQAPGKERELVAAITSGSITYYADSVKGRFTISRDNAKNTVYLQMNSLKPEDTAVYYCAAVGLVRYGYWGQGTQVTVSS

>  <Result>
high polyreactivity

$$$$
>  <Ordered Residues>
QVQLVESGGGLVQAGGSLRLSRAASGIMFGSYAMGWYRQAPGKERELVAAITSRGGSTYYADSVKGRFTISRDNAKNTVYLQMISLKPEDTAVYYCADVLYYWRVVYYVYADTGDYWGQCTQVTVSS

>  <Result>
high polyreactivity

$$$$
>  <Ordered Residues>
QVQLVESGGGLDQAGGSLRLSCAASGSIFVHYAMGWYRQAPGKERELVAGITFRGGRTYYADSVKGRFTISRDNAKNTVYLQMNSLKPEDTAVYYCAALYSVRGGYPSSHRIRMEYCGQGTQVTVSS

>  <Result>
high polyreactivity

$$$$
>  <Ordered Residues>
QVQLVESGGGLVQAGGSLRLSCAASGRTFRGYAMGWYRQAPGKERELVAGISRSGGSTYYADSVKGRFTISRDNAKNTVYLQMNSLKPEDTAVYYCNAVPIYYAWRRNKPFDYWGQGTQVTVSS

>  <Result>
low polyreactivity

$$$$
>  <Ordered Residues>
QDQLVESGGGLVQAGGSLRLSCAASGSTFSWYTMGWYRQAPGKERELVAAISKRGGSTYYADSVKGRFTISRDNAKNTVYLQMNSLKPEDTAVYYCNKDDERGKLYYWGQGTQVTVSS

>  <Result>
high polyreactivity

$$$$
>  <Ordered Residues>
QVQLVESGGVLVQAGGSLRISCAASGSTFYSYDMGWYRQAPGKERELVAAISSSSGSTYYADSVKARFTISRDNAKNTVYLQMNSLKPEDTAVYYCKRGRRYSHKYDYWGQVTQVTVSS

>  <Result>
high polyreactivity

$$$$
>  <Ordered Residues>
QVQLVESGGGLVQAGGSLRLSCAASGRTFNYYVMGWYRRAPGKERELVAAITWRGGRTYADSVKGRFTISRDNAKNTVYLQMNSLKPEDTAVYYCAAYTTKGYGYWGQGTQVTVSS

>  <Result>
high polyreactivity

$$$$
>  <Ordered Residues>
QVQLVESGGGLVQAGGSLRLSCAASGRTFGYNAMGWYRHAPGKERELVAAISSSGGSTYYADSVKGRFTISRDNAKNTVYLQMNSLKPEDTEVYYCATQGYSWAHGSDYWGQGTQVTVSS

>  <Result>
low polyreactivity

$$$$
